system: TR alpha-UAS-bla HEK 293T Cells; assay: TR cell-based agonist detection, β-lactamase reporter (LiveBLAzer FRET B/G), TR alpha; details: Detection of TR_cell-based agonist; HEK 293T-TR alpha, 24 hours; read-out: TR_α_EC50
pEC50: −log10 of the molar value.
Measurement label: pEC50

Query: Fill blank: measured pEC50 of the molecule N#Cc1nn(-c2cc(Cl)c(Oc3ccc4ncn(CCN5CCCC5)c4c3)c(Cl)c2)c(=O)[nH]c1=O [Compound 5] is ____.
Reply: < 4.70

###

molecular target: THR-α ligand-binding domain (H6-THR-α) (Homo sapiens); construct: made in house; host or cells: Escherichia coli BL21 (DE3), vector pET28a; test: Co-activated peptide recruitment test of THR-α/RXR/GRIP1 (TR_LBD agonist detection, HTRF); type: biochemical; details: TR_LBD agonist, TR_α
Sequence (P10827 148-410 isoform P10827-2 limits assumed): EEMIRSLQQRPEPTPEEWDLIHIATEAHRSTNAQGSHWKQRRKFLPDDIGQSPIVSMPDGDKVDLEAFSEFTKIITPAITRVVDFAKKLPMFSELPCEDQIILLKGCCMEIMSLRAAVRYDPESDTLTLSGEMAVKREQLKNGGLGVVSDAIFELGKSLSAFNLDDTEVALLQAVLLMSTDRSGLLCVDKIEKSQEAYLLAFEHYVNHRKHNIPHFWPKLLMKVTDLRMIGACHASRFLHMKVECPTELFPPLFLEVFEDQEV
Sequence (P19793 225-462 partner limits assumed): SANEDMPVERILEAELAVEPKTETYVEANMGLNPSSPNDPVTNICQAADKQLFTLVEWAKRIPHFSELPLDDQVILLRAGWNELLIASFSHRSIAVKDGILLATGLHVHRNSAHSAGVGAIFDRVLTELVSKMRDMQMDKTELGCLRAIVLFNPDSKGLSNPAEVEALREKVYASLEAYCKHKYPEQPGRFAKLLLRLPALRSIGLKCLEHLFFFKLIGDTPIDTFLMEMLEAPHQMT
Sequence (Q15596 679-703 partner limits assumed): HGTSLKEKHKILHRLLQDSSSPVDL
Note to self: values exactly at 2 are Criterion met. So Maximum activity ratio (A520/A495) at or above 2 is Criterion met, below is Criterion not met.

Would you please look over these solved cases?
> print(dat)
                        structure.as.smiles     assigned.label
1  N#Cc1nn(-c2cc(Cl)c(Oc3ccc4ncn(C5CCCC5)c4c3)c(Cl)c2)c(=O)[nH]c1=O      Criterion met
2  Cn1cnc2ccc(Oc3c(Br)cc(-n4nc(C#N)c(=O)[nH]c4=O)cc3Br)cc21      Criterion met
3  Cn1c(CCc2ccccc2)nc2cc(Oc3c(Cl)cc(-n4nc(C#N)c(=O)[nH]c4=O)cc3Cl)ccc21  Criterion not met
4  N#Cc1nn(-c2cc(Cl)c(Oc3ccc4ncn(CCN5CCCC5)c4c3)c(Cl)c2)c(=O)[nH]c1=O      Criterion met

Shift focus to the following entry.
Query: Tell me whether Maximum activity ratio (A520/A495) is at least 2 here: Cn1cnc2cc(Oc3c(Br)cc(-n4nc(C#N)c(=O)[nH]c4=O)cc3Br)ccc21
Reply: Criterion not met
